Entry source: ChEMBL document CHEMBL5053545

assay: Binding affinity to Escherichia coli sliding clamp assessed as dissociation constant by ITC analysis
*1 amine or outer side, *2 acyl side, *3 side chain or, on linkers, in order; H or OH if unused. Where a SMILES comes first, the peptide text is derived from it. [ ]: non-standard residue; d: D form. The star is where a group is joined. Acryloyl(3-(3-pyridyl),E) = O=C(/C=C/c1cccnc1)*; Oic = O=C(O)[C@@H]1C[C@@H]2CCCC[C@@H]2N1; X6 = O=C([C@@H]1CC(O)CN1[*:1])[*:2]; Hydrocinnamoyl = O=C(CCc1ccccc1)*; Cha = N[C@@H](CC1CCCCC1)C(=O)O; NMeD = CN[C@@H](CC(=O)O)C(=O)O
pKd for assorted molecules
Quick note: pKd means taking -log10 of the concentration in moles per liter.

Reported pKd, molecule CC(C)C[C@H](NC(=O)[C@H](CC(=O)O)NC(=O)[C@H](CC1CCCCC1)NC(=O)[C@H](CCC(N)=O)NC(=O)CCc1ccccc1)C(=O)N[C@@H](Cc1ccccc1)C(=O)O (Hydrocinnamoyl-Q[Cha]DLF-OH) : ____
6.91

Tell me the measured pKd of CC(=O)N[C@@H](CCC(N)=O)C(=O)N[C@@H](CC1CCCCC1)C(=O)N[C@@H](CC(=O)O)C(=O)N[C@@H](CC(C)C)C(=O)N1[C@H](C(=O)N[C@@H](Cc2ccccc2)C(=O)O)C[C@@H]2CCCC[C@@H]21 (Ac-Q[Cha]DL[Oic]F-OH) , please.
6.92

pKd for CC(=O)N[C@@H](CCC(N)=O)C(=O)N[C@@H](CC1CCCCC1)C(=O)N[C@@H](CC(=O)O)C(=O)N[C@@H](CC(C)C)C(=O)N1CCC[C@H]1C(=O)N[C@@H](CC(C)C)C(=O)O (Ac-Q[Cha]DLPL-OH) ?
6.74

Query (molecule): CC(=O)N[C@@H](CCC(N)=O)C(=O)N[C@@H](CC1CCCCC1)C(=O)N[C@@H](CC(=O)O)C(=O)N[C@@H](CC(C)C)C(=O)N1CC(O)C[C@H]1C(=O)N[C@@H](CC(C)C)C(=O)O (stereo partly drawn) (Ac-Q[Cha]DL[X6]L-OH) ; field requested: pKd
6.43

For the molecule shown here, CC(C)C[C@H](NC(=O)[C@H](CC(=O)O)N(C)C(=O)[C@H](CC1CCCCC1)NC(=O)[C@H](CCC(N)=O)NC(=O)/C=C/c1cccnc1)C(=O)N1[C@H](C(=O)N[C@@H](Cc2ccccc2)C(=O)O)C[C@@H]2CCCC[C@@H]21 ({Acryloyl(3-(3-pyridyl),E)}-Q[Cha][NMeD]L[Oic]F-OH) , give the reported pKd.
6.93

---

test system: Escherichia coli; experiment: Binding affinity to Escherichia coli sliding clamp assessed as association rate constant by ITC analysis
*1 amine or outer side, *2 acyl side, *3 side chain or, on linkers, in order; H or OH if unused. Where a SMILES comes first, the peptide text is derived from it. [ ]: non-standard residue; d: D form. The star is where a group is joined. NEtAsp = CCN([C@@H](CC(=O)[*:3])C(=O)[*:2])[*:1]; Phe(3,4-Cl2) = N[C@@H](Cc1ccc(Cl)c(Cl)c1)C(=O)O; Oic = O=C(O)[C@@H]1C[C@@H]2CCCC[C@@H]2N1; Cha = N[C@@H](CC1CCCCC1)C(=O)O; NMeD = CN[C@@H](CC(=O)O)C(=O)O; X4 = NC[C@H](Cc1ccccc1)N*
Parameter measured: K

Example molecules with recorded K:
CC(=O)N[C@@H](CCC(N)=O)C(=O)N[C@@H](CC1CCCCC1)C(=O)N[C@@H](CC(=O)O)C(=O)N[C@@H](CC(C)C)C(=O)N[C@H](CN)Cc1ccccc1 (Ac-Q[Cha]DL-X4): 1.2 10^4/M/s
CC(=O)N[C@@H](CCC(N)=O)C(=O)N[C@@H](CC1CCCCC1)C(=O)N(C)[C@@H](CC(=O)O)C(=O)N[C@@H](CC(C)C)C(=O)N[C@@H](Cc1ccc(Cl)c(Cl)c1)C(=O)O (Ac-Q[Cha][NMeD]L[Phe(3,4-Cl2)]-OH): 2.7 10^5/M/s
CC(=O)N[C@@H](CCC(N)=O)C(=O)N[C@@H](CC1CCCCC1)C(=O)N[C@@H](CC(=O)O)C(=O)N[C@@H](CC(C)C)C(=O)N1[C@H](C(=O)N[C@@H](CC(C)C)C(=O)O)C[C@@H]2CCCC[C@@H]21 (Ac-Q[Cha]DL[Oic]L-OH): 7.1 10^4/M/s

// lookup K for CCN(C(=O)[C@H](CC1CCCCC1)NC(=O)[C@H](CCC(N)=O)NC(C)=O)[C@@H](CC(=O)O)C(=O)N[C@@H](CC(C)C)C(=O)N[C@@H](Cc1ccccc1)C(=O)O (Ac-Q[Cha][NEtAsp]LF-OH)
2.9 10^4/M/s

---

assay: Binding affinity to Escherichia coli sliding clamp assessed as dissociation constant by ITC analysis
Where a SMILES comes first, the peptide text is derived from it. [ ]: non-standard residue; d: D form. The star is where a group is joined. Acetyl(1-naphthyl) = O=C(Cc1cccc2ccccc12)*; Caffeoyl = O=C(/C=C/c1ccc(O)c(O)c1)*; NMeQ = CN[C@@H](CCC(N)=O)C(=O)O; Cha = N[C@@H](CC1CCCCC1)C(=O)O
Entries and their measured Kd follow.

For orientation, consider the following solved cases.
CC(C)C[C@H](NC(=O)[C@H](CC(=O)O)NC(=O)[C@H](CC1CCCCC1)NC(=O)[C@H](CCC(N)=O)NC(=O)Cc1cccc2ccccc12)C(=O)N[C@@H](Cc1ccccc1)C(=O)O ({Acetyl(1-naphthyl)}-Q[Cha]DLF-OH): 89 nM
CC(=O)N(C)[C@@H](CCC(N)=O)C(=O)N[C@@H](CC1CCCCC1)C(=O)N[C@@H](CC(=O)O)C(=O)N[C@@H](CC(C)C)C(=O)N[C@@H](Cc1ccccc1)C(=O)O (Ac-[NMeQ][Cha]DLF-OH): > 1000 nM
CC(C)C[C@H](NC(=O)[C@H](CC(=O)O)NC(=O)[C@H](CC1CCCCC1)NC(=O)[C@H](CCC(N)=O)NC(=O)/C=C/c1ccc(O)c(O)c1)C(=O)N[C@@H](Cc1ccccc1)C(=O)O (Caffeoyl-Q[Cha]DLF-OH): 99 nM

Next, consider the following compound.
Entry under review: CC(=O)N[C@@H](CCC(N)=O)C(=O)N[C@@H](CC1CCCCC1)C(=O)N[C@@H](CC(=O)O)C(=O)N[C@@H](CC(C)C)C(=O)N1CCC[C@H]1C(=O)N[C@@H](Cc1ccccc1)C(=O)O (Ac-Q[Cha]DLPF-OH) . Reported Kd?
81 nM

---

experiment: Binding affinity to Escherichia coli sliding clamp assessed as dissociation constant by ITC analysis
*1 amine or outer side, *2 acyl side, *3 side chain or, on linkers, in order; H or OH if unused. Where a SMILES comes first, the peptide text is derived from it. [ ]: non-standard residue; d: D form. The star is where a group is joined. Gly(N-3-morpholinopropyl) = O=C(O)CNCCCN1CCOCC1; Phe(3,4-Cl2) = N[C@@H](Cc1ccc(Cl)c(Cl)c1)C(=O)O; NH(4-MeO-phenyl) = COc1ccc(N*)cc1; X2 = O=C(CN(Cc1ccccn1)[*:1])[*:2]; tBuAla = CC(C)(C)C[C@H](N)C(=O)O; Cha = N[C@@H](CC1CCCCC1)C(=O)O; NMeD = CN[C@@H](CC(=O)O)C(=O)O; CO = O=C([*:1])[*:2]
Parameter measured: pKd
In plain terms, pKd is the concentration in mol/L turned into minus its base-10 logarithm.

Answered cases to consult:
CC(=O)N[C@@H](CCC(N)=O)C(=O)N[C@@H](CC1CCCCC1)C(=O)N[C@@H](CC(=O)O)C(=O)N[C@@H](CC(C)C)C(=O)NCC(=O)N[C@@H](CC(C)(C)C)C(=O)O (Ac-Q[Cha]DLG[tBuAla]-OH): 5.57
CC(C)C[C@H](NC(=O)[C@H](CC(=O)O)NC(=O)[C@H](CC1CCCCC1)NC(=O)[C@H](CCC(N)=O)NC(=O)CNCCCN1CCOCC1)C(=O)N[C@@H](Cc1ccccc1)C(=O)O (H-[Gly(N-3-morpholinopropyl)]Q[Cha]DLF-OH): 6.10

// lookup pKd for CC(C)C[C@H](NC(=O)[C@H](CC(=O)O)NC(=O)[C@H](CC1CCCCC1)NC(=O)[C@H](CCC(N)=O)NC(=O)CNCc1ccccn1)C(=O)N[C@@H](Cc1ccccc1)C(=O)O (H-[X2]Q[Cha]DLF-OH)
6.76

What does the record list as pKd for COc1ccc(NC(=O)N[C@@H](CCC(N)=O)C(=O)N[C@@H](CC2CCCCC2)C(=O)N(C)[C@@H](CC(=O)O)C(=O)N[C@@H](CC(C)C)C(=O)N[C@@H](Cc2ccc(Cl)c(Cl)c2)C(=O)O)cc1 ({NH(4-MeO-phenyl)-CO}-Q[Cha][NMeD]L[Phe(3,4-Cl2)]-OH) ?
6.58

Returns the measured pKd for the input molecule. Input: CC(=O)N[C@@H](CCCNC(=N)N)C(=O)N[C@@H](CCC(N)=O)C(=O)N[C@@H](CC1CCCCC1)C(=O)N(C)[C@@H](CC(=O)O)C(=O)N[C@@H](CC(C)C)C(=O)N[C@@H](Cc1ccc(Cl)c(Cl)c1)C(=O)O (Ac-RQ[Cha][NMeD]L[Phe(3,4-Cl2)]-OH)
6.56
